Below, each entry is listed alongside its reported log10(IC50).
# target-or-test-system: AKT1 (Homo sapiens, UniProt P31749)
# Construct: Full-length non-phosphorylated AKT1 is diluted in assay buffer
# Sequence (P31749 whole entry): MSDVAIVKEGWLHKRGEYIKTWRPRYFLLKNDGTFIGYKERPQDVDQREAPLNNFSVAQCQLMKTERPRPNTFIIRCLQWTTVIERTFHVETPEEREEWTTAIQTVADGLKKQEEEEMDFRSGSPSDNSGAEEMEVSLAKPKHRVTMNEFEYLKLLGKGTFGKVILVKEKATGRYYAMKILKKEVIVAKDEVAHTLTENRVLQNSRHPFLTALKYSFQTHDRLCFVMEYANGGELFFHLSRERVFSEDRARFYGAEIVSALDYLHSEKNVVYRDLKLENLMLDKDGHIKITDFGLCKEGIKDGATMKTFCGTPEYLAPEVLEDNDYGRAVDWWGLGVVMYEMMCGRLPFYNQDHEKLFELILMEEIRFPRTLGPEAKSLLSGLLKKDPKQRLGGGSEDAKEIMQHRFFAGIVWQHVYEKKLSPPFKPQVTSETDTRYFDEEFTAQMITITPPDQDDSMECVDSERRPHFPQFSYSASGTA
# assay-explanation: AKT1 Alpha Screen Assay
# study-conditions: full-length non-phosphorylated AKT1 8 nM, activated by PDK1 and MAPKAPK2, lipid vesicles, 50 μM ATP; biotinylated crosstide substrate; AlphaScreen
Where a name gives a salt, the structure may show the parent alone.
measured-property: log10(IC50) (log10 of the value in nM)

| compound | value-measured |
| --- | --- |
| Nc1ncc(-c2nc3n(c2-c2ccc(C4(N)CCC4)cc2)-c2cccnc2Nc2ccccc2-3)cn1 [Example 31, trihydrochloride] | 0.48 |
| NC1(c2ccc(-c3c(-c4cccc(F)c4)nc4n3-c3cccnc3Nc3ccccc3-4)cc2)CCC1 [Example 139] | 1.87 |
| C[C@@H](N)c1ccc(-c2c(-c3ccccc3)nc3n2-c2cccnc2Nc2ccccc2-3)cc1 [Example 148] | 1.82 |
| COc1ncc(-c2nc3n(c2-c2ccc(C4(N)CCC4)cc2)-c2cccnc2Nc2ccccc2-3)s1 [Example 68] | 1.43 |
| NC1(c2ccc(-c3c(-c4ncco4)nc4n3-c3cccnc3Nc3ccccc3-4)cc2)CCC1 [Example 151] | 0.60 |
| NC1(c2ccc(-c3nc4n(c3-c3ccccc3)-c3cccnc3Nc3ccccc3-4)cc2)CCC1 [Example 144] | 2.26 |
| Cc1ccccc1-c1nc2n(c1-c1ccc(C3(N)CCC3)cc1)-c1cccnc1Nc1ccccc1-2 [Example 141] | 2.65 |
